- TESTED_ON: T1, HLA-A*01:01_… (HLA-PEPTIDE target G2), recombinant biotinylated complex (human, enzymatically biotinylated (BirA))
- T1 construct: also called G2-pHLA
- PROTOCOL_SUMMARY: phage panning, scFv ELISA;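 also: scFv binders from three to four bead panning rounds, tested as PPEs by ELISA on streptavidin plates carrying peptide-HLA complex (2 µg/ml), detected via anti-V5 and HRP anti-mouse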

| BINDER | binding result |
| --- | --- |
| G2(1C09) scFv (scFv, V domains shown) VH: QVQLVQSGAEVKKPGASVKVSCKASGYTFSSYNMHWVRQAPGQGLEWMGWINGNTGGTNYAQKFQGRVTMTRDTSTSTVYMELSSLRSEDTAVYYCARGVNVDDFDYWGQGTLVTVSS VL: DIQMTQSPSSLSASVGDRVTITCRASQTISNYLNWYQQKPGKAPKLLIYAASNLQSGVPSRFSGSGSGTDFTLTISSLQPEDFATYYCQQSYSTPQTFGQGTKVEIK | binds |
| G2(2C11) scFv (scFv, V domains shown) VH: QVQLVQSGAEVKKPGASVKVSCKASGGTFNNYAFSWVRQAPGQGLEWMGWINPNSGGTNYAQKFQGRVTMTRDTSTSTVYMELSSLRSEDTAVYYCARDGVAVASDYWGQGTLVTVSS VL: DIQMTQSPSSLSASVGDRVTITCRASQGISNYLAWYQQKPGKAPKLLIYAASTLQSGVPSRFSGSGSGTDFTLTISSLQPEDFATYYCQQSYSVPYSFGQGTKLEIK | binds |

Source: patent US20240059797A1
